test: In vitro metabolism in liver microsomes, human; format: in vitro ADME; settings: pH 7.4; human liver microsomes; read-out: Inherent clearance rate in liver microsomes
Measure Name: microsomal CLint at 0.193 µM (µL/min/mg)

a: CCN1CCN(Cc2ccc(NC(=O)NCCCCC(=O)Nc3ccccc3)cc2)CC1
b: CCN1CCN(Cc2ccc(NC(=O)NCCCCC(=O)Nc3ccc(F)cc3)cc2)CC1
Returns: the argument ( a or b ) having the larger microsomal CLint at 0.193 µM. State the label of the item chosen.
a
(a: 9.5 µL/min/mg, b: 5.7 µL/min/mg)
